Collected from the literature: log10 of Ki of various molecules toward Carbonic anhydrase 14 (Homo sapiens, UniProt Q9ULX7).
Log10 applied to Ki; unit prior to transform: nM.

Guide cases for log10 of Ki, answers given:
{"molecule": "NS(=O)(=O)c1ccc(-c2cn([C@@H]3O[C@H](CO)[C@@H](O)[C@H](O)[C@H]3O)nn2)cc1", "observable": "log10 of Ki", "value": 1.70}
{"molecule": "CN(C)c1ccc2c(-c3ccc(NC(=S)NCc4cn(-c5cccc(S(N)(=O)=O)c5)nn4)cc3C(=O)O)c3ccc(=[N+](C)C)cc-3oc2c1", "observable": "log10 of Ki", "value": 1.50}
{"molecule": "CCCC(C)C(=O)Nc1ccc(S(N)(=O)=O)cc1 (stereo not drawn)", "observable": "log10 of Ki", "value": 2.81}
{"molecule": "NS(=O)(=O)c1ccc(CO)cc1", "observable": "log10 of Ki", "value": 3.58}

Prompt: # assay system Carbonic anhydrase 14 (Homo sapiens, UniProt Q9ULX7): give log10 of Ki of NS(=O)(=O)c1ccc2[nH]c(-c3cscn3)nc2c1
Response: 2.63

Prompt: # assay system Carbonic anhydrase 14 (Homo sapiens, UniProt Q9ULX7): give log10 of Ki of CC(=O)OC[C@H]1O[C@@H](O[C@H]2[C@H](OC(C)=O)[C@@H](OC(C)=O)[C@H](NC(=S)NCc3ccc(S(N)(=O)=O)cc3)O[C@@H]2COC(C)=O)[C@H](OC(C)=O)[C@@H](OC(C)=O)[C@H]1OC(C)=O
Response: 0.93

Prompt: # assay system Carbonic anhydrase 14 (Homo sapiens, UniProt Q9ULX7): give log10 of Ki of CC1(C)O[C@@H]2[C@@H](CO[C@@]3(CNS(N)(=O)=O)OC(C)(C)O[C@@H]23)O1
Response: 1.40
